Biological target: ALK5 (Homo sapiens, UniProt P36897)
Construct: purchased Reaction Biology Corp (Malvern, Pa.)
Sequence (P36897 34-503): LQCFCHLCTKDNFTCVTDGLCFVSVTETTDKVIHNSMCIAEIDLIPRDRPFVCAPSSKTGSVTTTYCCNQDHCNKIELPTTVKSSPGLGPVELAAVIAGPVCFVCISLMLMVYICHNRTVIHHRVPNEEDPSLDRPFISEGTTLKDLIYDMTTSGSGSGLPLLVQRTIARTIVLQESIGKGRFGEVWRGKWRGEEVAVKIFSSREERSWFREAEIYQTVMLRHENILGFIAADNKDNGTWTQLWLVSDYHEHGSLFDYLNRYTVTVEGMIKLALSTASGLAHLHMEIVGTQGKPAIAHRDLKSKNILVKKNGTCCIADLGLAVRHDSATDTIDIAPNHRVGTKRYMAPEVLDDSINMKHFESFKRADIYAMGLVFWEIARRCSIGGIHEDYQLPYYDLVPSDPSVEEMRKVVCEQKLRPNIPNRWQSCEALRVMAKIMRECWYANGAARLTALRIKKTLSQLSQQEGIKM
Assay: ALK5 enzyme inhibition assay (casein substrate, 10 uM ATP, 33P-ATP, filter-binding; Reaction Biology Corp)
Type: biochemical
Conditions: Table 11
Description: ALK5 enzyme inhibition assays were performed by Reaction Biology Corp (Malvern, Pa.). 1 mg/mL of peptide substrate (casein) and 10 uM ATP were prepared in a mixture of fresh reaction buffer. The kinase was delivered into the substrate solution which was gently mixed. […] Radioactivity was detected by filter-binding method and kinase activity data were expressed as the percent remaining kinase activity in test samples compared to vehicle (dimethyl sulfoxide) reactions. […]
A collection of compounds and their measured IC50

Cc1cccc(-c2nc(CNCc3ccccc3-c3ccc(CNC(=O)OC(C)(C)C)cc3)[nH]c2-c2ccc3ncnn3c2)n1 | 100 to 1000 nM
Cc1cccc(-c2nc(CNCc3ccc(Cl)c(Cl)c3)[nH]c2-c2ccc3ncnn3c2)n1 | 100 to 1000 nM
Cc1cccc(-c2nc(CNCCc3ccc(F)cc3)[nH]c2-c2ccc3ncnn3c2)n1 | 100 to 1000 nM
Cc1cccc(-c2nc(CNCc3ccccc3CC(F)(F)F)[nH]c2-c2ccc3ncnn3c2)n1 | 50 to 100 nM
Cc1cccc(-c2nc(CNCc3ccccc3-c3ccccn3)[nH]c2-c2ccc3ncnn3c2)n1 | 100 to 1000 nM

Ask: Query IC50 on ALK5 (Homo sapiens, UniProt P36897) for "Cc1cccc(-c2nc(CNCc3ccccc3-c3ccccc3CN)[nH]c2-c2ccc3ncnn3c2)n1"
Reply: 100 to 1000 nM

Ask: Query IC50 on ALK5 (Homo sapiens, UniProt P36897) for "Cc1cccc(-c2nc(CNCc3ccccc3-c3cccc(CN)c3)[nH]c2-c2ccc3ncnn3c2)n1"
Reply: 100 to 1000 nM
